Tested on: CP325
test: qHTS profiling for inhibitors of Plasmodium falciparum proliferation (AID 504749); further: nearly all actives have a fitted effect of over 60% in size
conditions.used: P. falciparum in erythrocytes, SYBR Green DNA, 72 h; series mostly up to 28.7 µM
Results filed as inconclusive are left out. Active and inactive are the calls of the source. The call rests on the fitted dose curve; in most records, active means well fitted inhibition curve with a large enough effect; inconclusive means small, poorly fitted or top-dose-only effect; inactive means flat fitted curve, though single readings scatter.
In this exercise, the only acceptable responses are active, inactive

Request: Please indicate how the test categorized Nc1ccn([C@@H]2O[C@H](CO)[C@@H](O)C2O)c(=O)n1 (stereo partly drawn) .
Result: inactive

Request: Query: recorded result category for `Cc1cc(C2CCCCC2)n(O)c(=O)c1` in this test
Result: active

Request: Tell me the assay call for `O=C(O)c1cccnc1Nc1cccc(C(F)(F)F)c1` please.
Result: inactive

Request: Dear colleague, could you share the recorded outcome for CCC1=C(C)CN(C(=O)NCCc2ccc(S(=O)(=O)NC(=O)NC3CCC(C)CC3)cc2)C1=O (stereo not drawn) when you have a moment?
Result: inactive

Request: # outcome recorded in this test, key = COc1cc2c(cc1OC)C1CC(=O)C(CC(C)C)CN1CC2 (stereo not drawn)
Result: inactive

Request: What classification did `C[C@H](Cn1cnc2c(N)ncnc21)OCP(=O)(O)O` end up with in this test?
Result: inactive

Request: Fill in: this test's call for `CCOC(=O)c1c(C)n(C)c2ccc(O)cc12` is ___
Result: inactive

Request: Which outcome did this test record for the molecule `CC(C)c1ccc2oc3nc(N)c(C(=O)O)cc3c(=O)c2c1` ?
Result: inactive

----------
test: Cell Viability - HepG2 (AID 433);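 further: cells exposed to compound for 40 hours; potency for ATP loss meaning cytotoxicity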
conditions.used: qHTS
Inconclusive results are not listed. Active and inactive are the calls of the source. Calls come from the whole dose curve.
Tick one outcome: active, inactive

Request: Dear all, I need the recorded test outcome for `c1ccc2[nH]c(-c3cscn3)nc2c1` , thank you.
Result: inactive

Request: Query: recorded result category for CCCCC(CC)COC(=O)C(C#N)=C(c1ccccc1)c1ccccc1 (stereo not given) in this test
Result: inactive

Request: Answer briefly: the call reported for `CN(C)c1ccc2nc3ccc(=[N+](C)C)cc-3sc2c1` in this assay.
Result: active

Request: Answer briefly: the call reported for `CC(=O)Nc1ccc(O)cc1` in this assay.
Result: inactive

Request: How was `CCc1nc(N)nc(N)c1-c1ccc(Cl)cc1` classified in this test?
Result: active

----------
target.desc: Tyrosine-protein phosphatase non-receptor type substrate 1 (Homo sapiens) + Leukocyte surface antigen CD47 (Homo sapiens) (UniProt P78324+Q08722)
Sequence (P78324 whole entry, looked up): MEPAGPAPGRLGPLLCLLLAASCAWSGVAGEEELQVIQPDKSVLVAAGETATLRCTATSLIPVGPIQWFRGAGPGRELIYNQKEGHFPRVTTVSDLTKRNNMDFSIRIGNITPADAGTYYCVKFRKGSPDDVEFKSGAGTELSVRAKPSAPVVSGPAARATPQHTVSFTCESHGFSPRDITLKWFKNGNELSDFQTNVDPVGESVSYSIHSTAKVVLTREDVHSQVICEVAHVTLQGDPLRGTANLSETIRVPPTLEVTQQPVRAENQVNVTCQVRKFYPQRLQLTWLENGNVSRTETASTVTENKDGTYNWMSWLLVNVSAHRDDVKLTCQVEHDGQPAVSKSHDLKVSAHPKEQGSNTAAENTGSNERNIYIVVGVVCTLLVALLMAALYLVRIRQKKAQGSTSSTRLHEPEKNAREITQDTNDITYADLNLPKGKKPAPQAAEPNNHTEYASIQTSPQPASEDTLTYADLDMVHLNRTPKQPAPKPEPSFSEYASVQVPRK
Sequence (Q08722 whole entry, looked up): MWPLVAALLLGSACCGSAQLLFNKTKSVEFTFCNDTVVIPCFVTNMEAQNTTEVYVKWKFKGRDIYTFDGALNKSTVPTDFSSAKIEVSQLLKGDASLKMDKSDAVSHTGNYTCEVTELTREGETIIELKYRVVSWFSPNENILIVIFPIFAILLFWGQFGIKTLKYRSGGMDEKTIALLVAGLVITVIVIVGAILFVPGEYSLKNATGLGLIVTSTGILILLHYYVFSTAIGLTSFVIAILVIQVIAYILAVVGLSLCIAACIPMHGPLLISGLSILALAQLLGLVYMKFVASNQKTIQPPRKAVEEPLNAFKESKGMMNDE
test: CD47-SIRPalpha protein protein interaction - Alpha assay qHTS validation (AID 1347059);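 further: bead proximity luminescence from CD47 binding SIRPalpha after compound preincubation with SIRPalpha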
conditions.used: AlphaScreen CD47-His/biotin-SIRPalpha binding, LOPAC; series mostly up to 38.3 µM
Inconclusive results are not listed. The source made the active and inactive calls. Calls follow the shape of the dose curve; as a rule, active = well fitted inhibition curve with a large enough effect; inconclusive = small, poorly fitted or top-dose-only effect; inactive = flat fitted curve, though single readings scatter.
property.name: outcome

O=C1c2c(O)cc(O)cc2OC(c2ccc(O)c(O)c2)C1O (stereo not drawn)
inactive
Nc1nc(N)c(N=O)c(OCC2CCCCC2)n1
inactive
CCOC(=O)C(C)Oc1cccc2c(=O)n(CC(=O)Nc3ccc4c(c3)OCCO4)ccc12 (stereo not drawn)
inactive

----------
target.desc: Papain (Carica papaya)
test: Primary qHTS assay for inhibitors of the protease papain (AID 1645873);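 further: papain turnover of Z-FR-AMC read as the AMC fluorescence gain over 10 min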
conditions.used: papain Z-FR-AMC cleavage, AMC fluorescence; series mostly up to 49.8 µM
Records with an inconclusive call do not appear. The source made the active and inactive calls. Calls follow the shape of the dose curve; as a rule, active = well fitted inhibition curve with a large enough effect; inconclusive = small, poorly fitted or top-dose-only effect; inactive = no such curve, though single readings can be large or run the other way.
Bench note: report the call from active, inactive

Request: Please state the recorded outcome for this compound: `CC1(C)C(=O)N(CCN2CCC(C(=O)c3ccc(F)cc3)CC2)c2ccccc21`
Result: inactive

Request: Check the results log: what was the call for `CC(C)c1ccc2c(c1)c(SC(C)(C)C)c(CC(C)(C)C(=O)O)n2Cc1ccc(Cl)cc1` ?
Result: inactive

Request: Hey, what did the test say about `Cc1cc(Cl)ccc1OCCCC(=O)NO` ?
Result: inactive

Request: Entry `NC(=NCc1ccccc1)NC(=O)c1nc(Cl)c(N)nc1N` : call = ?
Result: active

Request: What did this assay record as the result for `O=C(CCc1ccc(O)cc1)c1c(O)cc(O)cc1O` ?
Result: inactive

Request: // param item: `Oc1ccc(-c2nc(-c3ccc(F)cc3)c(-c3ccncc3)[nH]2)cc1` ; yields the recorded call
Result: inactive

----------
Test system: P93_24
test: qHTS profiling for inhibitors of Plasmodium falciparum proliferation (AID 504749); further: nearly all actives have a fitted effect of over 60% in size
conditions.used: P. falciparum in erythrocytes, SYBR Green DNA, 72 h; series mostly up to 28.7 µM
Results filed as inconclusive are left out. The source made the active and inactive calls. Calls follow the shape of the dose curve; as a rule, active = well fitted inhibition curve with a large enough effect; inconclusive = small, poorly fitted or top-dose-only effect; inactive = flat fitted curve, though single readings scatter.
property.name: outcome

Consider the following illustrative entries.
CN1C(C(=O)Nc2ccccn2)=C(O)c2sccc2S1(=O)=O
inactive
CC1(C)NC(=O)N(c2ccc([N+](=O)[O-])c(C(F)(F)F)c2)C1=O
inactive
CC1(C)CCC(C)(C)c2cc(NC(=O)c3ccc(C(=O)O)cc3)ccc21
inactive
CC(S)C(=O)NCC(=O)O (stereo not given)
inactive

Attention now shifts to the item below.
Request: What measured outcome goes with `CNC[C@@H](O)[C@@H](O)[C@H](O)[C@H](O)CO` ?
Result: inactive

----------
System: CP217
test: qHTS profiling for inhibitors of Plasmodium falciparum proliferation (AID 504749); further: nearly all actives have a fitted effect of over 60% in size
conditions.used: P. falciparum in erythrocytes, SYBR Green DNA, 72 h; series mostly up to 28.7 µM
Results filed as inconclusive are left out. The source made the active and inactive calls. The call rests on the fitted dose curve; in most records, active means well fitted inhibition curve with a large enough effect; inconclusive means small, poorly fitted or top-dose-only effect; inactive means flat fitted curve, though single readings scatter.
Hello, when you answer, please use one of the following outcomes: T (active), F (inactive)

Request: Write down the call the test reported for this compound. Item: `Cc1cc(=O)c2c(O)c3c(O)cc(=O)c4c3c3c(cc(O)c1c23)C(C)(C)C=4O`
Result: T

Request: Which outcome did this test record for the compound `O=C1c2ccccc2-c2n[nH]c3cccc1c23` ?
Result: F

Request: Query: recorded result category for `Cc1nc2n(c(=O)c1CCN1CCC(c3noc4cc(F)ccc34)CC1)CCCC2` in this test
Result: F

Request: Answer briefly: the call reported for `CCOc1cc(CC(=O)N[C@@H](CC(C)C)c2ccccc2N2CCCCC2)ccc1C(=O)O` in this assay.
Result: F

Request: What classification did `O=C(O)c1cccc(-c2noc(-c3ccccc3F)n2)c1` end up with in this test?
Result: F

Request: Kindly provide the recorded test outcome for the following compound: `C[C@]12CCC(=O)C=C1CC[C@@H]1[C@H]2[C@@H](O)C[C@@]2(C)[C@H]1CC[C@]2(O)C(=O)CO`
Result: F

Request: Short answer needed: outcome of this test for `CN(C)C(=O)COC(=O)Cc1ccc(OC(=O)c2ccc(N=C(N)N)cc2)cc1` ?
Result: F

Request: Record lookup: outcome of this test for `COC1=C(OC)C(=O)C(CCCCCCCCCCO)=C(C)C1=O` ?
Result: F

Request: Can you look up the reported call for `NNc1nncc2ccccc12` for me?
Result: F

Request: // param item: `O=C(NCCO[N+](=O)[O-])c1cccnc1` ; yields the recorded call
Result: F

Request: State the result this test recorded for `O=c1oc2cc(O)ccc2s1` .
Result: F

----------
test: Quantitative High-Throughput drug screen in 47 multiple myeloma cell lines against the NCATS MIPE library collection: MM1S_ATCC cell viability assay (AID 1918980); further: nearly all actives have a fitted effect of over 45% in size
conditions.used: MM1S myeloma viability, CellTiter-Glo ATP luminescence, 48 h; series mostly up to 45.8 µM
Results filed as inconclusive are left out. Calls of active or inactive are those of the source. Calls come from the whole dose curve; as a rule, active = well fitted cell-killing curve with a large enough effect; inconclusive = small, poorly fitted or top-dose-only effect, or effect the other way; inactive = no such curve, though single readings can be large or run the other way.
# output must be one of True for active, False for inactive

Request: What did the test return for `CS(=O)(=O)OCCCCOS(C)(=O)=O` ?
Result: False

Request: Tell me the assay call for `CCN(CC)CCOc1ccc(Nc2ncc3cc(-c4c(Cl)cccc4Cl)c(=O)n(C)c3n2)cc1` please.
Result: True

Request: Hi, sorry to bother you, what did the test record for `CCN(CC)C(=S)SSC(=S)N(CC)CC` ?
Result: True

Request: Which outcome did this test record for the compound `Nc1nc(OCc2ccccc2)c2[nH]cnc2n1` ?
Result: True

Request: Entry `C[C@@H](c1ncncc1F)[C@](O)(Cn1cncn1)c1ccc(F)cc1F` : call = ?
Result: False

Request: In this assay, the call recorded for O=C(NCC1CCCCN1)c1cc(OCC(F)(F)F)ccc1OCC(F)(F)F (stereo unspecified) was what?
Result: True

Request: Record lookup: outcome of this test for `CCN(CC)CCOc1ccc(Cc2ccccc2)cc1` ?
Result: True

Request: Just curious, what result did CC(C)[N+]1(C)[C@@H]2CC[C@H]1CC(OC(=O)C(CO)c1ccccc1)C2 (stereo partly specified) get here?
Result: False

Request: Hello, I am checking results. What call was entered for `O=C(NOCC1CC1)c1ccc(F)c(F)c1Nc1ccc(I)cc1Cl` ?
Result: True

Request: Short answer needed: outcome of this test for `COc1cc(OC)c(C(=O)CCCN2CCCC2)c(OC)c1` ?
Result: True

Request: # lookup: test call for `Oc1ccc(OCc2ccccc2)cc1`
Result: False

Request: What call does the record list for `NC(=NCc1ccccc1)NC(=O)c1nc(Cl)c(N)nc1N` ?
Result: True

Request: Per the records of this test, what outcome belongs to `Nc1nc(Cl)nc2c1ncn2[C@H]1C[C@H](O)[C@@H](CO)O1` ?
Result: True

Request: Name the outcome recorded for `N=C(N=C(N)N)N1CCOCC1` in the assay.
Result: True

Request: Give the logged outcome of this assay for the following compound: `COc1c2occc2cc2ccc(=O)oc12`
Result: True

Request: What did this assay record as the result for Cc1ncc([N+](=O)[O-])n1CC(C)O (stereo unspecified) ?
Result: True

Request: Recorded call for `Cc1nc2n(c(=O)c1CCN1CCC(c3noc4cc(F)ccc34)CC1)CCCC2` ?
Result: False

Request: Any idea what this test logged for COc1cc2nc(N3CCN(C(=O)C4CCCO4)CC3)nc(N)c2cc1OC (stereo unspecified) ?
Result: False

Request: Please share the test call associated with COc1ccc(C2(C#N)CCC(C(=O)O)CC2)cc1OC1CCCC1 (stereo unspecified) .
Result: True

Request: Record lookup: outcome of this test for `O=C(O)CCNC(=O)c1ccc(N=Nc2ccc(O)c(C(=O)O)c2)cc1` ?
Result: True

Request: Would you mind telling me which call this test gave `CC(C)C[C@H](NC(=O)[C@H](Cc1ccccc1)NC(=O)c1cnccn1)B(O)O` ?
Result: True

Request: // return assay outcome for `CC(=O)NC[C@H]1CN(c2ccc(N3CCOCC3)c(F)c2)C(=O)O1`
Result: True

Request: Called result for `COc1cc2c(N3CCN(C(=O)Nc4ccc(OC(C)C)cc4)CC3)ncnc2cc1OCCCN1CCCCC1`
Result: True

Request: Tell me the assay call for `CN(C)C(=O)COC(=O)Cc1ccc(OC(=O)c2ccc(N=C(N)N)cc2)cc1` please.
Result: True

Request: I'd appreciate the recorded outcome for Cc1cccc(CN2CCN(C(c3ccccc3)c3ccc(Cl)cc3)CC2)c1 (stereo unspecified) from this test.
Result: True

Request: Which result was noted for this compound in the test: Cc1ccc(S(=O)(=O)NC(=O)NN2CC3CCCC3C2)cc1 (stereo unspecified)
Result: True

Request: Dear colleague, could you share the recorded outcome for `C=CCc1cc(OC)c(O)c(C(=O)NCCO)c1` when you have a moment?
Result: False

Request: Returns: the outcome recorded for `CN(C)[C@@H](CCOc1cccc2ccccc12)c1ccccc1` in this assay.
Result: True

Request: Returns: the outcome recorded for C[Se]CCC(N)C(=O)O (stereo unspecified) in this assay.
Result: False

Request: # fetch the recorded call for `CCC[C@@H]1C[C@@H](C(=O)N[C@@H]([C@H]2O[C@H](SC)[C@H](O)[C@@H](O)[C@H]2O)[C@@H](C)O)N(C)C1` here
Result: False

Request: Per the records of this test, what outcome belongs to `O=c1c(O)c(-c2ccc(O)cc2O)oc2cc(O)cc(O)c12` ?
Result: True

Request: Answer briefly: the call reported for `COc1ccc2cc([C@H](C)C(=O)O)ccc2c1` in this assay.
Result: False

Request: Could you kindly confirm the outcome this assay logged for `Cc1cc(C2CCCCC2)n(O)c(=O)c1` ?
Result: True

Request: Query: recorded result category for `O=C(O)c1cccc(-c2noc(-c3ccccc3F)n2)c1` in this test
Result: True

Request: Which result was noted for this compound in the test: CCC1=C(C)CN(C(=O)NCCc2ccc(S(=O)(=O)NC(=O)NC3CCC(C)CC3)cc2)C1=O (stereo unspecified)
Result: False

Request: Entry `CC1(C)CCC(C)(C)c2cc(NC(=O)c3ccc(C(=O)O)cc3)ccc21` : call = ?
Result: True
